# TGT: Cbl-b (residues 36-427) (Homo sapiens)
# Sequence (Q13191 36-427): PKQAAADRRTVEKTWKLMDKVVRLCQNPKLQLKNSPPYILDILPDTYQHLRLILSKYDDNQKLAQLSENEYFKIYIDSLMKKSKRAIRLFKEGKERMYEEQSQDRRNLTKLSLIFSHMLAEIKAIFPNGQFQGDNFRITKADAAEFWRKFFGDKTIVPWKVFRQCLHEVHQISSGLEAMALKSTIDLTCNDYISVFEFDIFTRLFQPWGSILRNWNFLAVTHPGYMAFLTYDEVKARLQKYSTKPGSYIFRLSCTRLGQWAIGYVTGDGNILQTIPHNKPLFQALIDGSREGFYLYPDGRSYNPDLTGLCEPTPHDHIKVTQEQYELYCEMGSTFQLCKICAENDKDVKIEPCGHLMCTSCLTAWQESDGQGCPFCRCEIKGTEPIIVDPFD
Examples of compounds with documented Kd follow.
REPORTED_ENDPOINT: Kd

1. COc1c(C(=O)Nc2cccc([C@H](C)Sc3nncn3C)c2)cccc1C(F)(F)F: > 10000 nM
2. C[C@H](Cc1nncn1C)c1cccc(NC(=O)c2cc(C(=O)N3CCC4(COC4)C3)ccn2)c1: 3000 to 10000 nM
3. C[C@H](Sc1nncn1C)c1cccc(NC(=O)c2cc(C(=O)N3CC[C@@H](N(C)C)C3)ccn2)c1: 3000 to 10000 nM
4. C[C@H](Cc1nncn1C)c1cccc(N2Cc3c(cc(CN4CC(O)C4)cc3C(F)(F)F)C2=O)c1: < 100 nM
5. CC(Sc1nncn1C)c1cc(F)cc(N2Cc3c(cccc3C(F)(F)F)C2=O)c1 (stereo not drawn): 1000 to 3000 nM
6. C[C@H](Cc1nncn1C)c1cccc(NC(=O)c2cc(C(C)(C)O)cc(C(F)(F)F)n2)c1: 100 to 300 nM
7. C[C@H](Sc1nncn1C)c1cccc(NC(=O)c2cccc(C(C)(F)F)n2)c1: 301 to 1000 nM
8. Cn1cnnc1[C@@H]1C[C@@H]1c1cccc(NC(=O)c2nc3c(C(F)(F)F)cccc3[nH]2)c1: 301 to 1000 nM
9. C[C@H](Cc1nncn1C)c1cccc(N2Cc3c(cc(CN4CC[C@H](F)C4)cc3C(F)(F)F)C2=O)c1: < 100 nM

----------
# Test system: T-cell
# TEST_DESCRIPTION: IL-2 secretion from T-cells stimulated with anti-CD3 antibody alone (Biological Example 2)
# Format: cell-based, human
# PARTICULARS: T-cell; fold change over baseline; 8 μM Cbl-b inhibitor; primary human total T-cells; read-out: IL-2 secretion Anti-CD3 stimulation
REPORTED_ENDPOINT: fold induction at 8 µM

1) C[C@H](Sc1nncn1C)c1ccnc(NC(=O)c2cc3c(C(F)(F)F)cccc3[nH]2)c1 [Compound 120]: < 0.05
2) C[C@H](Sc1nncn1C)c1ccnc(NC(=O)c2cc(Cl)cc(C(F)(F)F)n2)c1 [Compound 105]: < 0.05
3) C[C@H](Cc1nncn1C)c1cccc(NC(=O)c2ccnc(C(F)(F)F)n2)c1 [Compound 187]: > 0.201

----------
pKd: −log10 of the molar value.
# pKd measurements, system: Cbl-b (residues 36-427) (Homo sapiens)
REPORTED_ENDPOINT: pKd

1) Cn1cnnc1C(F)(F)[C@](C)(F)c1cccc(N2Cc3c(cc(CN4CC[C@H](S(C)(=O)=O)C4)cc3C(F)(F)F)C2=O)c1: > 7.00
2) C[C@H](O)CNc1cc([C@H](C)Cc2nncn2C)cc(N2Cc3c(cccc3C(F)(F)F)C2=O)n1: 5.52 to 6.00
3) CC(Sc1nncn1C)c1cccc(N2Cc3ccc(Cl)cc3C2=O)c1 (stereo not shown): 5.00 to 5.52
4) Cn1cnnc1CC(C)(C)c1cccc(NC(=O)c2cc(C(=O)N3CC[C@H](O)C3)cc(C(F)(F)F)n2)c1: 6.52 to 7.00
5) Cn1cnnc1C(F)(F)[C@](C)(F)c1cccc(N2Cc3c(cc(CN4CCC(F)(F)C4)cc3C(F)(F)F)C2=O)c1: > 7.00
6) CC(Sc1nncn1C)c1ccc(F)c(NC(=O)c2ccc3ccccc3n2)c1 (stereo not shown): < 5.00
7) C[C@H](Cc1nncn1C)c1cccc(NC(=O)c2cc(N[C@H]3CC[C@@H](O)C3)ccn2)c1: 5.00 to 5.52
8) CC(=O)Nc1ccnc(C(=O)Nc2cccc([C@H](C)Sc3nncn3C)c2)c1: 5.00 to 5.52
9) C[C@H](Cc1nncn1C)c1cccc(NC(=O)c2cc(C(=O)N3C[C@@H](F)[C@@H](O)C3)ccn2)c1: 5.52 to 6.00
10) C[C@H](Sc1nncn1C)c1cccc(N2Cc3c(cccc3C(F)(F)F)C2=O)c1 [Compound 166a]: 6.00 to 6.52

----------
# TGT: Cbl-b (Homo sapiens, UniProt Q13191)
# Sequence (Q13191 36-427): as above
# TEST_DESCRIPTION: Cbl-b activity assay (Cbl-b inhibition assay), TR-FRET of Cbl-b interaction with UbcH5B-Ub
# Format: biochemical
# PARTICULARS: assay buffer with 100 mM NaCl, 60 nM Src kinase; read-out: Cbl-b activity IC50
Counter-ions that a name gives are not always drawn.
Examples of compounds with documented IC50 follow.
REPORTED_ENDPOINT: IC50

1) C[C@H](Sc1nncn1C)c1ccnc(NC(=O)c2ccc3ccccc3n2)c1: 301 to 1000 nM
2) Cc1cc(C)nc(C(=O)Nc2cccc([C@H](C)Sc3nncn3C)c2)c1: 301 to 1000 nM
3) C[C@H](Sc1nncn1C)c1ccnc(NC(=O)c2cccc(C(F)(F)F)n2)c1 [Compound 102b]: 1000 to 3000 nM
4) C[C@@H](c1cc2c(c(C(F)(F)F)c1)CN(c1cccc(C3(Cc4nncn4C)COC3)c1)C2=O)N1CC[C@H](F)C1: < 100 nM
5) C[C@H](Cc1nncn1C)c1cccc(N2Cc3c(cc(CN4CC[C@@H](F)C4)cc3C(F)(F)F)C2=O)c1: < 100 nM
6) CC1CN(c2cc3c(c(C(F)(F)F)c2)CN(c2cccc(C4(Cc5nncn5C)COC4)c2)C3=O)C1: < 100 nM
7) Cn1cnnc1C(F)(F)[C@](C)(F)c1cccc(N2Cc3c(cc(-c4cncc(F)c4)cc3C(F)(F)F)C2=O)c1: 100 to 300 nM
8) Cn1cnnc1C[C@@]1(c2cccc(N3Cc4c(cc(CN5CCC6(CC6)C5)cc4C(F)(F)F)C3=O)c2)CCOC1 (single isomer, unassigned) [Compound 517a]: < 100 nM
9) CCN1CCN(Cc2cc3c(c(C(F)(F)F)c2)CN(c2cccc(C4(Cc5nncn5C)COC4)c2)C3=O)CC1: < 100 nM
10) Cn1cnnc1CC1(c2cccc(N3Cc4c(cc(C5CN6CCC5CC6)cc4C(F)(F)F)C3=O)c2)COC1 (stereo not drawn): < 100 nM
11) C[C@H](Sc1nncn1C)c1cccc(NC(=O)c2ccc(CO)c(C3CC3)n2)c1: < 100 nM
12) Cc1cc(C(=O)Nc2cccc(C3(Cc4nncn4C)COC3)c2)nc(C2CC2)c1: < 100 nM
13) Cn1cnnc1C(F)(F)[C@](C)(F)c1cccc(N2Cc3c(cc(CN4CC[C@H](C#N)C4)cc3C(F)(F)F)C2=O)c1: < 100 nM
14) C[C@H](Sc1nncn1C)c1cccc(NC(=O)c2cc3cc(OCC(=O)NCCN)ccc3cn2)c1 [Compound 311, hydrochloride]: 100 to 300 nM
15) C[C@H](Sc1nncn1C)c1ccnc(NC(=O)c2cc3c(cn2)CCCC3)c1: 3000 to 10000 nM
16) CC(c1cc(C(=O)Nc2cccc(C3(Cc4nncn4C)COC3)c2)nc(C2CC2)n1)N1CCCC1 (stereo not drawn): < 100 nM
17) Cc1cc2c(c(C3CC3)n1)CN(c1cccc(C3(Cc4nncn4C)COC3)c1)C2=O: < 100 nM
18) Cc1c[nH]nc1C[C@@H](C)c1cccc(N2Cc3c(cc(C(=O)N4C[C@@H](O)C[C@H]4C)cc3C(F)(F)F)C2=O)c1: < 100 nM

----------
# TGT: Cbl-b (Homo sapiens, UniProt Q13191)
# TEST_DESCRIPTION: Cbl-b inhibition assay (Cbl-b activity assay, FRET, Biological Example 1; 100 mM NaCl, 60 nM Src kinase)
# Assay type: biochemical
# PARTICULARS: upper bound stated in text lists; read-out: IC50 values in the Cbl-b inhibition assay of Biological Example 1
pIC50: −log10 of the molar value.
Examples of compounds with documented pIC50 follow.
REPORTED_ENDPOINT: pIC50

1) CC(Sc1nncn1C)c1ccc(F)c(NC(=O)c2cccc(C(F)(F)F)n2)c1 (stereo not shown) [Compound 95]: ≥ 5.00
2) Cc1cc(C(=O)Nc2cccc(C3(Cc4nncn4C)COC3)c2)nc(C2CCC2)n1 [Compound 340]: ≥ 7.00
3) Cc1cc(C(=O)Nc2cccc([C@H](C)Sc3nncn3C)c2)nc(C(F)(F)F)c1 [Compound 65]: ≥ 7.00
4) C[C@H](Cc1nncn1C)c1cccc(NC(=O)c2cc(C(=O)N3CC(CO)C3)ccn2)c1 [Compound 232]: ≥ 5.00
5) C[C@@H](c1cc2c(c(C(F)(F)F)c1)CN(c1cccc(C3(Cc4nncn4C)COC3)c1)C2=O)N1CC(C)(F)C1 [Compound 543a]: ≥ 7.00
6) C[C@H](Sc1nncn1C)c1cccc(NC(=O)c2cccc(C(F)(F)F)c2F)c1 [Compound 42]: ≥ 6.00
7) C[C@H](Sc1nncn1C)c1ccc(F)c(N2Cc3c(cccc3C(F)(F)F)C2=O)c1 [Compound 169]: ≥ 5.00
8) C[C@H](Cc1nncn1C)c1cccc(N2Cc3c(cc(C(=O)N4CC[C@H](O)C4)cc3C3CC3)C2=O)c1 [Compound 277]: ≥ 7.00
9) Cc1c[nH]nc1C[C@@H](C)c1cccc(N2Cc3c(cc(C(=O)N4CCC(O)C4)cc3C(F)(F)F)C2=O)c1 (stereo in doubt) [Compound 463]: ≥ 7.00
10) CCOc1cc([C@H](C)Cc2nncn2C)cc(N2Cc3c(cccc3C(F)(F)F)C2=O)n1 [Compound 358]: ≥ 7.00

Where do these numbers come from? They come from patent US20220324835A1.
